# Tested system: Zif268-HMGa1-mCherry fusion protein (Mus musculus? (Zif268) / Homo sapiens …)
# Sequence (chain, as listed by the source): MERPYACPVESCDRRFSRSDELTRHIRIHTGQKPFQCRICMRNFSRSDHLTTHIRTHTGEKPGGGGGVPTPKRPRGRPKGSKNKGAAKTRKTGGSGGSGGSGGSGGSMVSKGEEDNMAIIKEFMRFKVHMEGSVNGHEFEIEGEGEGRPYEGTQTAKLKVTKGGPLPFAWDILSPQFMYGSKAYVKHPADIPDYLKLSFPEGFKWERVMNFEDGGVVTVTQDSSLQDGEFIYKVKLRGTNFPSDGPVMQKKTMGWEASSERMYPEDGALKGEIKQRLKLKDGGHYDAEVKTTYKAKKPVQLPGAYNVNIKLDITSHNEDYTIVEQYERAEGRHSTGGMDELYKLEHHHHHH
# Assay notes: SPR; about 140 nM; target immobilised on CM5 chip (Biacore)
Parameter measured: Kd (nM)
The figure you give is taken to be in nM; do not add the unit.

The recorded Kd for target nucleic acid (Zif268 target) (dsDNA) DNA 1: GTGTGTGTGTGATCTGCGTGGGCGGTAAG DNA 2: CTTACCGCCCACGCAGATCACACACACAC is 140
